Data provenance is paper PMC10291549.

System: A2780 cells
Assay type: cell-based, human
Conditions: preliminary experiment; read-out: cell growth IC50, A2780
Value type: IC50 (µM)
Numbers only, in µM.

Challenge: What IC50 value was documented for this molecule, CCn1c(-c2ccccc2)c(-c2ccccc2)n(CC)[c]1=[Au][S]C[C@H](NC(=O)CC[C@H](N)C(=O)O)C(=O)NCC(=O)O [Complex 12] ?
Response given: 15.9

* * *

Test system: K562 cells
Format: cell-based
Conditions: 72 h incubation; mean ± SD of two or three independent experiments; read-out: metabolic activity IC50, K562
Field: IC50. Provide a value for each of the molecules that follow.
Numbers only, in µM.

Below are worked cases with known answers.
>>> df
                                   molecule  value_type  recorded_value
0  N.N.[Cl][Pt][Cl] [Cisplatin, reference compound]        IC50            7.91
1  CCn1c(-c2ccccc2)c(-c2ccccc2)n(CC)[c]1=[Au+]([Cl])([Cl])=[c]1n(CC)c(-c2ccccc2)c(-c2ccccc2)n1CC.F[P-](F)(F)(F)(F)F        IC50            0.55
2  CCn1c(-c2ccccc2)c(-c2ccccc2)n(CC)[c]1=[Au+]([Br])([Br])=[c]1n(CC)c(-c2ccccc2)c(-c2ccccc2)n1CC.F[P-](F)(F)(F)(F)F        IC50            0.49

Please look at the following molecule next.
Challenge: What IC50 value was documented for this molecule, CC(=O)OC[C@H]1O[C@@H]([S-])[C@H](OC(C)=O)[C@@H](OC(C)=O)[C@@H]1OC(C)=O.CCP(CC)CC.[Au+] [Auranofin, reference compound] ?
Response given: 3.66
